Listed binders paired with reported Kd
- EXPERIMENTAL_TARGET: T1, Biotin-labeled human CXCR2 N-terminal extracellular peptide (pepN48) (Homo sapiens, UniProt P25025, biotin label (position not given))
- T1 construct: CXC chemokine receptor 2 (CXCR2, interleukin 8 receptor beta), human, the first 48 residues of the protein; Held on the streptavidin chip by its biotin; also called N-terminal peptide; peptide of extracellular N-terminal domain of human CXCR2
- T1 chain: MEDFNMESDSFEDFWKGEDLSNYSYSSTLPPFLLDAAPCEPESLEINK
- EXPERIMENTAL_PROTOCOL: SPR; biotin-labeled pepN48 immobilised on a streptavidin Series S Sensor Chip SA; Biacore T200; IgG1 antibodies injected as analytes in HBS-EP+ buffer pH 7.4; kinetics fitted globally
- REPORTED_CONDITIONS: both partners purified
Provide only the numeric value, understood in nM.

binder="abN48-1 (antibody, V domains shown, parent VH in PDB 6KVF; constant region of the human IgG1 heavy chain, from the pFuse heavy-chain vector; as the VL of the light chain of m1; light-chain constant region of the pFuse light-chain vector pfuse2ss-hcll2; Full-length IgG1; source: 293F cells, co-transfected, purified from the medium (HiTrap Protein A)) VH: QVQLVQSGAEVKKPGSSVKVSCKASGGTLSSYAISWVRQAPGQGPEWMGWINPNSGGTNYAQKFQGRVTMTRDTSISTAYMELSRLRPDDTAVYYCASGFCTRTICFVYWGQGTLVTVSS VL: QAVLTQPSSLSASPGASVSLTCTLRSGINVGAYRIYWYQQKPGSPPQFLLRYKSDSDKQQGSGVPSRFSGSRDASANAGILLISGLRSEDEADYYCAIWHSSAWVFGGGTQLTVL" quantity=Kd result=0.26
binder="abN48-38 (antibody, V domains shown, parent VH in PDB 6KVF; constant region of the human IgG1 heavy chain, from the pFuse heavy-chain vector; as the VL of the light chain of m1; light-chain constant region of the pFuse light-chain vector pfuse2ss-hcll2; Full-length IgG1; source: 293F cells, co-transfected, purified from the medium (HiTrap Protein A)) VH: QVQLVQSGAEVKKPGSSVKVSCKASGGTLSSYAISWVRQAPGQGPEWMGWINPNSGGTNYAQKFQGRVTMTRDTSISTAYMELSRLRPDDTAVYYCASGYCSRSRCYDYWGQGTLVTVSS VL: QAVLTQPSSLSASPGASVSLTCTLRSGINVGAYRIYWYQQKPGSPPQFLLRYKSDSDKQQGSGVPSRFSGSRDASANAGILLISGLRSEDEADYYCAIWHSSAWVFGGGTQLTVL" quantity=Kd result=0.23

// next item, Kd requested
In: Requested read-out: Kd. Entry: abN48 (antibody, V domains shown, VH of abN48; constant region of the human IgG1 heavy chain, from the pFuse heavy-chain vector; VL of abN48, the same for all studied antibodies; light-chain constant region of the pFuse light-chain vector pfuse2ss-hcll2; Full-length IgG1 in the experiments; the crystal structure 6KVF holds the Fab; also called abN48 antibody; source: 293F cells, co-transfected, purified from the medium (HiTrap …)) VH: QVQLVQSGAEVKKPGSSVKVSCKASGGTLSSYAISWVRQAPGQGPEWMGWINPNSGGTNYAQKFQGRVTMTRDTSISTAYMELSRLRPDDTAVYYCASGYCSSTSCYDYWGQGTLVTVSS VL: QAVLTQPSSLSASPGASVSLTCTLRSGINVGAYRIYWYQQKPGSPPQFLLRYKSDSDKQQGSGVPSRFSGSRDASANAGILLISGLRSEDEADYYCAIWHSSAWVFGGGTQLTVL
Out: 1.3
